Assay: Binding affinity to DPC micelle assessed as increase in fluorescence emission intensity at maximum wavelength at 1 uM in TRIS buffer at pH 7.4 measured after 24 hrs by Trp emission fluorescence spectroscopy relative to TRIS buffer
Non-standard residues stand in square brackets, D forms with d. Residues, ends and D or L forms follow the SMILES beside them. Orn = NCCC[C@H](N)C(=O)O; Dap = NC[C@H](N)C(=O)O
Please respond with reported fold change (FC) for every item in the list.

For orientation, consider the following solved cases.
Compound	Property measured	Test value
CC[C@H](C)[C@H](NC(=O)[C@H](CCCN)NC(=O)[C@@H](NC(=O)[C@H](C)NC(=O)[C@@H](NC(=O)[C@@H](NC(=O)[C@H](CC(C)C)NC(=O)[C@H](CCCN)NC(=O)[C@@H](N)C(C)C)[C@@H](C)CC)C(C)C)C(C)C)C(=O)N[C@@H](Cc1c[nH]c2ccccc12)C(=O)N[C@@H](CCCN)C(=O)N[C@@H](CCCN)C(N)=O (H-V[Orn]LIVAV[Orn]IW[Orn][Orn]-NH2)	fold change (FC)	2 to 6
CC[C@H](C)[C@H](NC(=O)[C@H](CCCN)NC(=O)[C@@H](NC(=O)[C@H](CCCN)NC(=O)[C@@H](NC(=O)[C@@H](NC(=O)[C@H](CC(C)C)NC(=O)[C@H](CCCN)NC(=O)[C@@H](N)C(C)C)[C@@H](C)CC)C(C)C)C(C)C)C(=O)N[C@@H](Cc1c[nH]c2ccccc12)C(=O)N[C@@H](CCCN)C(=O)N[C@@H](CCCN)C(N)=O (H-V[Orn]LIV[Orn]V[Orn]IW[Orn][Orn]-NH2)	fold change (FC)	2 to 6

Please find the next compound below.
**Q:** Given the compound CC[C@H](C)[C@H](NC(=O)[C@H](CN)NC(=O)[C@@H](NC(=O)[C@H](C)NC(=O)[C@@H](NC(=O)[C@@H](NC(=O)[C@H](CC(C)C)NC(=O)[C@H](CN)NC(=O)[C@@H](N)C(C)C)[C@@H](C)CC)C(C)C)C(C)C)C(=O)N[C@@H](Cc1c[nH]c2ccccc12)C(=O)N[C@@H](CN)C(=O)N[C@@H](CN)C(N)=O (H-V[Dap]LIVAV[Dap]IW[Dap][Dap]-NH2) , what is its reported fold change (FC)?
**A:** 2 to 6
